- Tested on: TK-10 renal
- procedure-summary: NCI-60 one-dose screen, 48 h (100 = growth as untreated, 0 = no growth, -100 = all killed)
- conditions: 10 µM unless noted
The panel holds about 83,000 compounds, 20% with a hit somewhere; the sample as a whole holds those more often.
observation-type: growth (%)
Only the number, expressed in %, is required.

## Task Look up and report measured growth for this entry: CN(Cc1ccccc1)c1nc(Cl)c(C2CC(c3ccc4c(c3)OCO4)=NN2c2cc(Cl)cc(Cl)c2)s1 (stereo not drawn)
## Result 119

## Task Using the record for Clc1ccc(CNc2ccc3nc(CCC4CCCCC4)[nH]c3c2)cc1 , state its measured growth.
## Result 83.6

## Task Fill in growth for record C=C(C)[C@@H]1CC[C@]2(C(=O)N3CCN(C)CC3)CC[C@]3(C)[C@H](CC[C@@H]4[C@@]5(C)CC(CCCNC(C)=O)(CCCNC(C)=O)[C@H](OC(C)=O)C(C)(C)[C@@H]5CC[C@]43C)[C@@H]12
## Result 109

## Task Supply recorded growth for Cc1cc(N2CCN(CC(=O)Nc3ccc4c(ccn4Cc4ccccc4)c3)CC2)nc(N2CCCCCC2)n1 here.
## Result 73.1

## Task Return value of growth for input COc1ccc(-c2ccccc2)cc1-c1c(Nc2cc(Cl)cc(Cl)c2O)c(=O)c1=O , no commentary.
## Result 12.8

## Task For the compound O=C1/C(=C/c2cn(-c3ccccc3)nc2-c2ccccc2)SC(=S)N1c1ccccc1 , give its reported growth.
## Result 106

## Task Fill in growth for record C/C=C(\C)C(=O)N[C@H]1CC[C@]2(C)C3CC[C@@]4(C)C(CC[C@@H]4C(C)N(C)C)C3CCC2[C@H]1OC(C)=O (stereo partly drawn)
## Result -48.3

## Task # return recorded growth for entry Nn1c(-c2ccc(Cl)cc2)nc2c(-c3ccc(Cl)cc3)nc3ccc(Cl)cc3c2c1=O
## Result 0.823

## Task Give the value of growth reported for the following: O=S(=O)(O)c1ccc(N=Nc2ccc(N=Nc3cccc4ccccc34)c(S(=O)(=O)O)c2)cc1
## Result 112

## Task Entry COc1ccc(C(c2cc(OC)c(OC)c(OC)c2)n2ccnc2)cc1O (stereo not drawn) needs its growth filled in; supply it.
## Result 52.9

## Task Quickly give me recorded growth for COc1cc(/C=N/NC(=O)CCN2c3ccccc3Sc3ccccc32)cc(OC)c1OC
## Result 110

## Task Hello, please tell me recorded growth for this one: CCOC(=O)c1ccc(Nc2ncnc3c2cnn3-c2cccc(F)c2)cc1
## Result 115

## Task Please give the documented growth of Cc1cc(N2CCCCC2)nc(NCc2cc(Nc3ccnc4cc(Cl)ccc34)ccc2F)n1
## Result -21.5

## Task Note growth for the compound shown: COc1ccccc1/C=C1\COc2ccc(O)c(O)c2C1=O
## Result 35.2

## Task Quote growth reported for CCN1CCN(C(=O)[C@]23CC[C@@H](C)[C@H](C)[C@@H]2C2=CC[C@@H]4[C@@]5(C)CCC(=O)C(C)(C)[C@@H]5CC[C@@]4(C)[C@]2(C)CC3)CC1 please.
## Result 18.7

## Task Tell us which growth value is on record for COc1cc(Cl)cc(-c2nn(C(=O)NS(=O)(=O)c3ccc(Cl)cc3)cc2-c2ccncc2)c1
## Result 85.8

## Task Consider the compound COc1ccc(-c2[nH]c3ccccc3c2-c2ccc(OC)cc2)cc1 . State its measured growth.
## Result 87.4

## Task Input Clc1cccc(Nc2ncnc3ccc(-c4cncc(-n5cnnn5)c4)cc23)c1 , output reported growth.
## Result 7.65

====

- Tested on: EKVX NSCLC
- procedure-summary: NCI-60 one-dose screen, 48 h
- conditions: 10 µM unless noted
This is part of a sample that, as a whole, favours compounds with a hit. Of some 83,000 tested, about 20% had one in any assay. Active and inactive are the calls of the source. How the source made its calls: active means growth percent below 10; inactive means the rest.
Output constraint: value belongs to true (1) = active, false (0) = inactive

## Task Look up the recorded call for COc1ccc2c(c1)c(-c1nc(-c3c[nH]c4c(Cl)nccc34)cs1)cn2C in this test.
## Result false (0)

## Task Lab log entry: O=C(Oc1ccc(CO[N+](=O)[O-])cc1)c1ccccc1 — outcome as called in the assay?
## Result true (1)

## Task Outcome? CCCCCCCCCCCCCCCCCCn1cc(COc2ccc(C=O)cc2)nn1
## Result false (0)

## Task What was the test verdict on O=C(NNc1ccccc1)c1ncc[nH]1 ?
## Result false (0)

## Task Field: outcome | Entry: O=C1N=c2ccccc2=C1c1sc(=S)n(C2CC(=O)N(c3ccc(Cl)cc3)C2=O)c1O (stereo unspecified)
## Result false (0)

## Task What outcome does the record of this test show for COc1ccccc1/C=C/C(=O)/C=C/c1ccccc1OC ?
## Result false (0)

====

- Tested on: NCI-H322M lung
- procedure-summary: NCI-60 one-dose screen, 48 h (100 = growth as untreated, 0 = no growth, -100 = all killed)
- conditions: 10 µM unless noted
- Protocol: Growth inhibition of the NCI-H322M human Non-Small Cell Lung tumor cell line is measured as a screen for anti-cancer activity. Cells are grown in 96 well plates and exposed to the test compound for 48 hours. Compounds are tested at a single concentration, which is 10^-5 M for most compounds. The reported endpoint is percent growth (GI% or GIPRCNT), where numbers from 0 - 100% represent growth inhibition, and numbers from -100% - 0 represent cell death. […]
This is part of a sample that, as a whole, favours compounds with a hit. Of some 83,000 tested, about 20% had one in any assay. Calls of active or inactive are those of the source. How the source made its calls: active means growth percent below 10; inactive means the rest.
Please go through the items and note down their growth.

## Task Quickly give me recorded growth for C/C(=C(\c1ccc(OCCN2CCOCC2)cc1)c1ccc(OC(=O)C2CCCCC2)cc1)c1ccc(Cl)cc1
## Result 91.9% (inactive)

## Task Return growth (reported value) for this compound: CCC(=O)Oc1cc(Cl)c(Cl)cc1Cl
## Result 104% (inactive)

## Task Give the reported value of growth for this record: CN1CCN(CCNC(=O)c2cccc(CN3c4cccc5c4C(=Cc4cccnc43)N(C)C5=O)c2)CC1
## Result 41.4% (inactive)

## Task Using known records, supply growth for N=c1ccccn1CCO
## Result 96.7% (inactive)

## Task Tell us which growth value is on record for COC(=O)c1c2c(c(C)[n+]([O-])c1C)C(=O)C(NCCN1CCOCC1)=CC2=O
## Result 72.5% (inactive)

## Task Look up and state reported growth for COc1ccc(C(=O)/C=C/c2ccc(OCc3cccc(C(F)(F)F)c3)c(OC)c2)cc1OC
## Result 11.7% [100 µM] (inactive)

## Task Answer with the recorded growth of COc1ccc(-c2c[nH]c(C(=O)O)c2-c2cc(OC)c(OC)c(OC)c2)cc1 only.
## Result 47.9% (inactive)

## Task For O=S(=O)(O)c1ccc(N=Nc2ccc(N=Nc3cccc4ccccc34)c(S(=O)(=O)O)c2)cc1 , write its growth.
## Result 102% (inactive)

## Task Complete the entry with growth for COc1ccc(Cn2cc(C(=O)Nc3cccnc3Nc3ccccc3)nn2)cc1
## Result 95.7% (inactive)

## Task Give the value of growth reported for the following: Cc1c(O)c(O)cc2c3c(oc12)CC(c1ccc2c(c1)OCO2)CC3=O (stereo not given)
## Result 90.1% (inactive)

## Task Check the records and state growth for N#CC1=C(N)Oc2c(sc3c(Br)cccc23)C1c1ccccn1 (stereo not given)
## Result 51.1% (inactive)

## Task Using known records, supply growth for CN1CCN(CCCN2c3ccccc3Sc3ccc(Cl)cc32)CC1
## Result 93.1% (inactive)

## Task Entry Cc1nc2sc(C(=O)Nc3cccc4ccccc34)c(N)c2cc1C(=O)/C=C/c1ccccc1 needs its growth filled in; supply it.
## Result 24% (inactive)

## Task Supply growth value. Item: COc1ccc(C/C(C)=C(/c2ccc(OCCN3CCCCCC3)cc2)c2ccc(OC(=O)c3ccccc3)cc2)cc1
## Result 102% (inactive)

## Task Please list growth recorded for the compound CCCCCCCCCCCCCCCCCCn1cc(COc2ccc(C=O)cc2)nn1
## Result 108% (inactive)

## Task Please list growth recorded for the compound COc1c(O)c(O)cc2c3c(oc12)CC(c1ccc2c(c1)OCO2)CC3=O (stereo not given)
## Result 73.2% (inactive)

## Task Determine from records and report growth for C=C(CNCCO)[C@@H]1CC[C@]2(CO)CC[C@]3(C)[C@H](CC[C@@H]4[C@@]5(C)CCC(NCCc6ccc(O)cc6)C(C)(C)[C@@H]5CC[C@]43C)[C@@H]12 (stereo not given in full)
## Result -41% (active)

## Task Note down growth recorded for Cc1ccc(Cc2cnc(NC(=O)c3cc(C)oc3C)s2)cc1
## Result 70.8% (inactive)

## Task // Input: COC1=CC(c2ccc[nH]2)=N/C1=C\c1[nH]c(C)c(C(=O)Oc2ccccc2)c1C . Output its growth only.
## Result -13.1% (active)

## Task Determine from records and report growth for CCN(CC)CC(=O)Nc1ccc2ncnc(Nc3ccc(Oc4cccc(F)c4)c(Cl)c3)c2c1
## Result 65.6% (inactive)
